# test.system: T1, TNFR1 (Homo sapiens, UniProt P19438)
# T1 chain: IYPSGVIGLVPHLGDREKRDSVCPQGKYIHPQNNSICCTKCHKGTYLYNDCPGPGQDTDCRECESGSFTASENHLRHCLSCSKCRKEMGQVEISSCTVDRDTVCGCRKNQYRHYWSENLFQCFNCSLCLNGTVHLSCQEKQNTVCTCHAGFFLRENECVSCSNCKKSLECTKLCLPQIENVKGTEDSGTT
# experimental.details: yeast display SC50
observation.type: apparent Kd (screen) (pM)

Some binders with recorded apparent Kd (screen):
{"columns": ["binder", "readout.units", "apparent Kd (screen)"],
 "data": [
  ["A105S (designed binder) MTLQELLREEALRRAEAEAFRYALELLAEKFPEQKEYLLDLAEEIESQIRSLSGVDVEDVRKFLDKEWAWVKELLAEHPAELAEVEAARAARLAELRAEVEAKVSA", "pM", 790],
  ["E73M (designed binder) MTLQELLREEALRRAEAEAFRYALELLAEKFPEQKEYLLDLAEEIESQIRSLSGVDVEDVRKFLDKEWAWVKMLLAEHPAELAEVEAARAARLAELRAEVEAKVAA", "pM", 653],
  ["A15N (designed binder) MTLQELLREEALRRNEAEAFRYALELLAEKFPEQKEYLLDLAEEIESQIRSLSGVDVEDVRKFLDKEWAWVKELLAEHPAELAEVEAARAARLAELRAEVEAKVAA", "pM", 653],
  ["E16Y (designed binder) MTLQELLREEALRRAYAEAFRYALELLAEKFPEQKEYLLDLAEEIESQIRSLSGVDVEDVRKFLDKEWAWVKELLAEHPAELAEVEAARAARLAELRAEVEAKVAA", "pM", 446]
]}

[1] L96T (designed binder) MTLQELLREEALRRAEAEAFRYALELLAEKFPEQKEYLLDLAEEIESQIRSLSGVDVEDVRKFLDKEWAWVKELLAEHPAELAEVEAARAARLAETRAEVEAKVAA
[2] L38V (designed binder) MTLQELLREEALRRAEAEAFRYALELLAEKFPEQKEYVLDLAEEIESQIRSLSGVDVEDVRKFLDKEWAWVKELLAEHPAELAEVEAARAARLAELRAEVEAKVAA
[3] F31P (designed binder) MTLQELLREEALRRAEAEAFRYALELLAEKPPEQKEYLLDLAEEIESQIRSLSGVDVEDVRKFLDKEWAWVKELLAEHPAELAEVEAARAARLAELRAEVEAKVAA
[4] R50G (designed binder) MTLQELLREEALRRAEAEAFRYALELLAEKFPEQKEYLLDLAEEIESQIGSLSGVDVEDVRKFLDKEWAWVKELLAEHPAELAEVEAARAARLAELRAEVEAKVAA
q: Order by apparent Kd (screen), ascending. Respond with an ordered listing of the labels, as requested.
a: 2, 1, 4, 3
(2: 172 pM, 1: 490 pM, 4: 1050 pM, 3: 7780 pM)
